For each of the binders below, state its IC50.
- system_under_test: T1, human DLL4 expressed on cells (CHO-hDLL4; HEK293-hDLL4) (human, UniProt Q9NR61 27-685)
- T1 construct: full length human DLL4 overexpressed on CHO cells (FMAT, FACS) or HEK293 cells (reporter assay)
- experiment_summary: competition FMAT CHO-hDLL4; summary table
One number for each entry, in nM.

A selection of reference data follows.
INSERT INTO measurements (binder, measured_property, value) VALUES
  ('DLLBII129D08 (VHH, not shown: small tags and cut ends) VHH: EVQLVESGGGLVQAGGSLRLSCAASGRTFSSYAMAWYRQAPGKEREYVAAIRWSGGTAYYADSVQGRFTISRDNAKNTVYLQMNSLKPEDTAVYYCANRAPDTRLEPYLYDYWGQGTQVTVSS', 'IC50', 7.8),
  ('DLLBII133G05 (VHH, not shown: small tags and cut ends) VHH: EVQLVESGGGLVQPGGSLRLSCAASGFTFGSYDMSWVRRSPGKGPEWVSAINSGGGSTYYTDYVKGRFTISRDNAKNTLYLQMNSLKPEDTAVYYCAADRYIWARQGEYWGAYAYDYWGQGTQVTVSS', 'IC50', 5.9);

Let's switch to this binder now.
Sample DLLBII136C07 (VHH, not shown: small tags and cut ends) VHH: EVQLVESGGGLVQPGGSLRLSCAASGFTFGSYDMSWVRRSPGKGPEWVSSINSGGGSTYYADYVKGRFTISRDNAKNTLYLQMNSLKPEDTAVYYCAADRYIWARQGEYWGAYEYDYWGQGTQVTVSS — what was its IC50?
8
